- experimentalProtocol: in vivo
- protocolConditions: rat, po, 5 mg/kg
- Description: AUC (0 to 24 hrs) in rat at 5 mg/kg, po
assayEndpoint: AUC(0-t) at 24 h (µM·h)
# unit: µM·h | format: bare number

Lookup: Can you share its AUC(0-t) at 24 h? I mean this molecule: `C=C(C)[C@@H]1CC[C@]2(CNCCN(C)C)CC[C@]3(C)[C@H](CC[C@@H]4[C@@]5(C)CC=C(c6ccc(C(=O)O)cc6)C(C)(C)[C@@H]5CC[C@]43C)[C@@H]12`
Found: 0.153

Lookup: Can you share its AUC(0-t) at 24 h? I mean this molecule: `C=C(C)[C@@H]1CC[C@]2(CNCCCN3CCCC3=O)CC[C@]3(C)[C@H](CC[C@@H]4[C@@]5(C)CC=C(c6ccc(C(=O)O)cc6)C(C)(C)[C@@H]5CC[C@]43C)[C@@H]12`
Found: 1.04

Lookup: Can you share its AUC(0-t) at 24 h? I mean this molecule: `C=C(C)[C@@H]1CC[C@]2(CNCCO)CC[C@]3(C)[C@H](CC[C@@H]4[C@@]5(C)CC=C(c6ccc(C(=O)O)cc6)C(C)(C)[C@@H]5CC[C@]43C)[C@@H]12`
Found: 4.98

----------
- experimentalProtocol: Half life in rat liver microsomes at 0.5 uM in presence of NADPH by LC-MS/MS analysis
- Type: ADME
assayEndpoint: half-life at 0.5 µM

Lookup: Can you share its half-life at 0.5 µM? I mean this compound: `C=C(C)[C@@H]1CC[C@]2(NCCN3CCS(=O)(=O)CC3)CC[C@]3(C)[C@H](CC[C@@H]4[C@@]5(C)CC=C(c6ccc(C(=O)O)cc6)C(C)(C)[C@@H]5CC[C@]43C)[C@@H]12`
Found: > 120 min

----------
- experimentalProtocol: Half life in iv dosed rat by LC-MS/MS analysis
- Format: ADME, organism-based
- protocolConditions: in vivo
assayEndpoint: half-life (h)
# unit: h | format: bare number

Lookup: Can you share its half-life? I mean this compound: `C=C(C)[C@@H]1CC[C@]2(NCCN3CCS(=O)(=O)CC3)CC[C@]3(C)[C@H](CC[C@@H]4[C@@]5(C)CC=C(c6ccc(C(=O)O)cc6)C(C)(C)[C@@H]5CC[C@]43C)[C@@H]12`
Found: 6.6

----------
- experimentalProtocol: Half life in iv dosed dog by LC-MS/MS analysis
- Assay type: ADME, organism-based, Canis lupus familiaris
- protocolConditions: in vivo
assayEndpoint: half-life (h)
# unit: h | format: bare number

Lookup: Can you share its half-life? I mean this compound: C=C(C)[C@@H]1CC[C@]2(NCCN3CCS(=O)(=O)CC3)CC[C@]3(C)[C@H](CC[C@@H]4[C@@]5(C)CC=C(c6ccc(C(=O)O)cc6)C(C)(C)[C@@H]5CC[C@]43C)[C@@H]12 [BMS-955176]
Found: 31.7

----------
- experimentalProtocol: Oral bioavailability in dog at 1.85 mg/kg by LC-MS/MS analysis
- Type: ADME, organism-based, Canis lupus familiaris
- protocolConditions: in vivo
assayEndpoint: bioavailability
Remember to follow the number with its unit.

Lookup: Can you share its bioavailability? I mean this compound: `C=C(C)[C@@H]1CC[C@]2(NCCN3CCS(=O)(=O)CC3)CC[C@]3(C)[C@H](CC[C@@H]4[C@@]5(C)CC=C(c6ccc(C(=O)O)cc6)C(C)(C)[C@@H]5CC[C@]43C)[C@@H]12`
Found: 8.5%

----------
For each entry below, report its AUC(0-t) at 24 h value.
- experimentalProtocol: in vivo
- protocolConditions: rat, po, 5 mg/kg
# unit: nM·h | format: bare number

Lookup: Can you share its AUC(0-t) at 24 h? I mean this molecule: `C=C(C)[C@@H]1CC[C@]2(C(=O)O)CC[C@]3(C)[C@H](CC[C@@H]4[C@@]5(C)CC=C(c6ccc(C(=O)O)cc6)C(C)(C)[C@@H]5CC[C@]43C)[C@@H]12`
Found: 5720

Lookup: Can you share its AUC(0-t) at 24 h? I mean this molecule: `C=C(C)[C@@H]1CC[C@]2(C(=O)NCCN(C)C)CC[C@]3(C)[C@H](CC[C@@H]4[C@@]5(C)CC=C(c6ccc(C(=O)O)cc6)C(C)(C)[C@@H]5CC[C@]43C)[C@@H]12`
Found: 1620

Lookup: Can you share its AUC(0-t) at 24 h? I mean this molecule: `C=C(C)[C@@H]1CC[C@]2(NCCN3CCS(=O)(=O)CC3)CC[C@]3(C)[C@H](CC[C@@H]4[C@@]5(C)CC=C(c6ccc(C(=O)O)cc6)C(C)(C)[C@@H]5CC[C@]43C)[C@@H]12`
Found: 4130

Lookup: Can you share its AUC(0-t) at 24 h? I mean this molecule: `C=C(C)[C@@H]1CC[C@]2(CNCCCN3CCS(=O)(=O)CC3)CC[C@]3(C)[C@H](CC[C@@H]4[C@@]5(C)CC=C(c6ccc(C(=O)O)cc6)C(C)(C)[C@@H]5CC[C@]43C)[C@@H]12`
Found: 1710

----------
- experimentalProtocol: Protein binding in human serum by ultracentrifugation method
- Type: ADME
- protocolConditions: read-out: PB
assayEndpoint: fraction unbound

Lookup: Can you share its fraction unbound? I mean this molecule: `C=C(C)[C@@H]1CC[C@]2(NCCN3CCS(=O)(=O)CC3)CC[C@]3(C)[C@H](CC[C@@H]4[C@@]5(C)CC=C(c6ccc(C(=O)O)cc6)C(C)(C)[C@@H]5CC[C@]43C)[C@@H]12`
Found: < 0.16

----------
- experimentalProtocol: Drug level in mouse at 5 mg/kg administered via oral gavage after 24 hrs by LC-MS/MS analysis
- Type: ADME, organism-based
- protocolConditions: in vivo, read-out: Drug uptake
assayEndpoint: concentration at 24 h (nM)
# unit: nM | format: bare number

Lookup: Can you share its concentration at 24 h? I mean this compound: C=C(C)[C@@H]1CC[C@]2(NCCN3CCS(=O)(=O)CC3)CC[C@]3(C)[C@H](CC[C@@H]4[C@@]5(C)CC=C(c6ccc(C(=O)O)cc6)C(C)(C)[C@@H]5CC[C@]43C)[C@@H]12 [BMS-955176]
Found: 256

----------
- experimentalProtocol: in vitro
- protocolConditions: human, MT2 cells
- Description: Cytotoxicity against human MT2 cells
For each entry below, report its CC50 value.
# unit: nM | format: bare number

Lookup: Can you share its CC50? I mean this compound: `C=C(C)[C@@H]1CC[C@]2(C(=O)NCCN(C)C)CC[C@]3(C)[C@H](CC[C@@H]4[C@@]5(C)CC=C(c6ccc(C(=O)O)cc6)C(C)(C)[C@@H]5CC[C@]43C)[C@@H]12`
Found: 2.61

Lookup: Can you share its CC50? I mean this compound: `C=C(C)[C@@H]1CC[C@]2(CNCCN(C)C)CC[C@]3(C)[C@H](CC[C@@H]4[C@@]5(C)CC=C(c6ccc(C(=O)O)cc6)C(C)(C)[C@@H]5CC[C@]43C)[C@@H]12`
Found: 1.24

Lookup: Can you share its CC50? I mean this compound: `C=C(C)[C@@H]1CC[C@]2(CNCCCN3CCCC3=O)CC[C@]3(C)[C@H](CC[C@@H]4[C@@]5(C)CC=C(c6ccc(C(=O)O)cc6)C(C)(C)[C@@H]5CC[C@]43C)[C@@H]12`
Found: 5.8

Lookup: Can you share its CC50? I mean this compound: `C=C(C)[C@@H]1CC[C@]2(NCCN3CCS(=O)(=O)CC3)CC[C@]3(C)[C@H](CC[C@@H]4[C@@]5(C)CC=C(c6ccc(C(=O)O)cc6)C(C)(C)[C@@H]5CC[C@]43C)[C@@H]12`
Found: 9.2

Lookup: Can you share its CC50? I mean this compound: `C=C(C)[C@@H]1CC[C@]2(CNC(C)C)CC[C@]3(C)[C@H](CC[C@@H]4[C@@]5(C)CC=C(c6ccc(C(=O)O)cc6)C(C)(C)[C@@H]5CC[C@]43C)[C@@H]12`
Found: 2.36

Lookup: Can you share its CC50? I mean this compound: `C=C(C)[C@@H]1CC[C@]2(CNCCO)CC[C@]3(C)[C@H](CC[C@@H]4[C@@]5(C)CC=C(c6ccc(C(=O)O)cc6)C(C)(C)[C@@H]5CC[C@]43C)[C@@H]12`
Found: 8.48

Lookup: Can you share its CC50? I mean this compound: `C=C(C)[C@@H]1CC[C@]2(CNCCCN3CCS(=O)(=O)CC3)CC[C@]3(C)[C@H](CC[C@@H]4[C@@]5(C)CC=C(c6ccc(C(=O)O)cc6)C(C)(C)[C@@H]5CC[C@]43C)[C@@H]12`
Found: 3.5

Lookup: Can you share its CC50? I mean this compound: `C=C(C)[C@@H]1CC[C@]2(C(=O)O)CC[C@]3(C)[C@H](CC[C@@H]4[C@@]5(C)CC=C(c6ccc(C(=O)O)cc6)C(C)(C)[C@@H]5CC[C@]43C)[C@@H]12`
Found: 27.2

----------
- experimentalProtocol: Half life in dog liver microsomes at 0.5 uM in presence of NADPH by LC-MS/MS analysis
- Type: ADME, Canis lupus familiaris
assayEndpoint: half-life at 0.5 µM

Lookup: Can you share its half-life at 0.5 µM? I mean this compound: `C=C(C)[C@@H]1CC[C@]2(NCCN3CCS(=O)(=O)CC3)CC[C@]3(C)[C@H](CC[C@@H]4[C@@]5(C)CC=C(c6ccc(C(=O)O)cc6)C(C)(C)[C@@H]5CC[C@]43C)[C@@H]12`
Found: > 2 h

These entries and their values trace back to ChEMBL document CHEMBL3826912.
